- tgt: Bombesin receptor subtype-3 (Homo sapiens, UniProt P32247)
- Sequence (P32247 whole entry): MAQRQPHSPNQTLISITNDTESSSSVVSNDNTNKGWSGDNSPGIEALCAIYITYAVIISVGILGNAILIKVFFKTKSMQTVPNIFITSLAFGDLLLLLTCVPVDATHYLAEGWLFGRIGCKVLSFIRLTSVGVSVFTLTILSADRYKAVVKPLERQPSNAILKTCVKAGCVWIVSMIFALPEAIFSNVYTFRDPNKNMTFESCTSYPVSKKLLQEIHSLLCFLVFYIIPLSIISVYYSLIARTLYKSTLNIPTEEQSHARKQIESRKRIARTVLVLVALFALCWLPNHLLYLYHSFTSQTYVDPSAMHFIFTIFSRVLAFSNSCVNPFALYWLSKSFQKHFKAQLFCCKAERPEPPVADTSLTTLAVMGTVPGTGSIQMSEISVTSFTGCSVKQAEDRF
- assay.remarks: Agonist activity at human BB3 transiently expressed in human HEK293T cells assessed as increase in IP-1 accumulation incubated for 60 mins by HTRF assay
measurement.label: EC50 (nM)
Give the number; nM is assumed, so skip it.

Summary for this molecule, C=CC(C)(C)C(OC(=O)c1ccco1)c1cc(OC)c2c(c1OC)/C(=N/O)C=C/C2=N\O (stereo unspecified) : EC50 is 149

* * *

compounds and their reported EC50
- tgt: Bombesin receptor subtype-3 (Homo sapiens, UniProt P32247)
- Sequence (P32247 whole entry): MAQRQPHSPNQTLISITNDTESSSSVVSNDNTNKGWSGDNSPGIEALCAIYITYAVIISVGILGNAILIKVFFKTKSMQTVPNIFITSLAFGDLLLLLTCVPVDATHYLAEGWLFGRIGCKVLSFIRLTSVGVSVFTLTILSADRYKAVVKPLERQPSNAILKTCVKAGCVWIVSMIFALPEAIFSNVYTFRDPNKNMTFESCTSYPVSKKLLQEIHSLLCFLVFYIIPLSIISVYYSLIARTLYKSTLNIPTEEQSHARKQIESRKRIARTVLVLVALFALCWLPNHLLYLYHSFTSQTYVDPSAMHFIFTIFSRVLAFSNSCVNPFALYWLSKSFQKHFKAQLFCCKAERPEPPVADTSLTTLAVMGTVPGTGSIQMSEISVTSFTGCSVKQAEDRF
- assay.remarks: Agonist activity at human BB3 stably overexpressed in human NCI-H1299 cells assessed as increase in IP-1 accumulation incubated for 60 mins by HTRF assay
- Type: functional, cell-based
Give the number; nM is assumed, so skip it.

Study these solved cases before continuing.
- compound: "C=CC(C)(C)C(OC(=O)c1ccccc1)c1cc(OC)c2c(c1OC)/C(=N/O)C=C/C2=N\\O (configuration not stated)"
  EC50 [nM]: 4.79
- compound: "C=CC(C)(C)C(OC(=O)c1ccco1)c1cc(OC)c2c(c1OC)/C(=N/O)C=C/C2=N\\O (configuration not stated)"
  EC50 [nM]: 3.78
- compound: "C=CC(C)(C)C(OC(=O)c1ccc(C)cc1)c1cc(OC)c2c(c1OC)/C(=N/O)C=C/C2=N\\O (configuration not stated)"
  EC50 [nM]: 81.7
- compound: "COc1cc(C(CC=C(C)C)OC(=O)CC(C)C)c(OC)c2c1/C(=N/O)C=C/C2=N\\O (configuration not stated)"
  EC50 [nM]: 822
- compound: "C=CC(C)(C)C(OC(=O)c1ccccn1)c1cc(OC)c2c(c1OC)/C(=N/O)C=C/C2=N\\O (configuration not stated)"
  EC50 [nM]: 14.7

Summary for this compound, C=CC(C)(C)C(OC(=O)c1ccncc1)c1cc(OC)c2c(c1OC)/C(=N/O)C=C/C2=N\O (configuration not stated) : EC50 is 277

Summary for this compound, COc1cc(C(O)CC=C(C)C)c(OC)c2c1/C(=N/O)C=C/C2=N\O (configuration not stated) : EC50 is 3400

Summary for this compound, C=CC(C)(C)C(OC(=O)C1CCCO1)c1cc(OC)c2c(c1OC)/C(=N/O)C=C/C2=N\O (configuration not stated) : EC50 is 135

Summary for this compound, C=CC(C)(C)C(OC(=O)CC(C)C)c1cc(OC)c2c(c1OC)/C(=N/O)C=C/C2=N\O (configuration not stated) : EC50 is 52.5

Summary for this compound, O[C@@](Cc1nc(CC2(C(F)(F)F)CC2)c[nH]1)(c1ccc(-n2cccn2)cc1)C(F)(F)F : EC50 is 0.211

Summary for this compound, C=CC(C)(C)C(OC(=O)c1ccc(C=O)cc1)c1cc(OC)c2c(c1OC)/C(=N/O)C=C/C2=N\O (configuration not stated) : EC50 is 311
